Test system: Escherichia coli TOP10
Experiment: shrunken log2 fold change of peptide-encoding DNA abundance (4.5 h post-induction vs induction); higher = less antimicrobial activity (less host growth inhibition)
Details: time post-induction: 4.5 h; library: site-saturation at positions 5, 18, 19, 20
readout name: shrunken log2 fold change

INSERT INTO results (record_sequence, measured) VALUES
  ('RRIRIRPPRLPRPRPRPCHMPRP', -0.188),
  ('RRIRCRPPRLPRPRPRPDDRPRP', -0.0204),
  ('RRIRPRPPRLPRPRPRPYQNPRP', -0.339);

* * *

Catalogue of shrunken log2 fold change values
Test system: Escherichia coli TOP10
Test: shrunken log2 fold change of peptide-encoding DNA abundance (4.5 h post-induction vs induction); higher = less antimicrobial activity (less host growth inhibition)
Settings: time post-induction: 4.5 h; library: site-saturation at positions 5, 18, 19, 20
readout name: shrunken log2 fold change

INSERT INTO results (record_sequence, measured) VALUES
  ('RRIRPRPPRLPRPRPRPTMCPRP', -0.0327),
  ('RRIRDRPPRLPRPRPRPNCYPRP', -0.414),
  ('RRIRHRPPRLPRPRPRPLQGPRP', 0.00978),
  ('RRIRKRPPRLPRPRPRPKRQPRP', 0.0282),
  ('RRIRARPPRLPRPRPRPSDAPRP', 0.396),
  ('RRIRHRPPRLPRPRPRPLPEPRP', 0.126),
  ('RRIRGRPPRLPRPRPRPTYCPRP', 0.309),
  ('RRIRSRPPRLPRPRPRPENHPRP', -0.138),
  ('RRIRRRPPRLPRPRPRPHGAPRP', 0.284),
  ('RRIRYRPPRLPRPRPRPGMWPRP', 0.234),
  ('RRIRERPPRLPRPRPRPEAQPRP', 0.227),
  ('RRIRFRPPRLPRPRPRPEIYPRP', 0.0026),
  ('RRIRDRPPRLPRPRPRPDPAPRP', 0.304),
  ('RRIRDRPPRLPRPRPRPQLIPRP', 0.0732);

* * *

System: Escherichia coli TOP10
Assay: shrunken log2 fold change of peptide-encoding DNA abundance (4.5 h post-induction vs induction); higher = less antimicrobial activity (less host growth inhibition)
Details: time post-induction: 4.5 h; library: site-saturation at positions 5, 18, 19, 20
readout name: shrunken log2 fold change

INSERT INTO results (record_sequence, readout_name, measured) VALUES
  ('RRIRWRPPRLPRPRPRPHFSPRP', 'shrunken log2 fold change', -0.205),
  ('RRIRARPPRLPRPRPRPCTSPRP', 'shrunken log2 fold change', 0.0117),
  ('RRIRRRPPRLPRPRPRPMPNPRP', 'shrunken log2 fold change', 0.129),
  ('RRIRQRPPRLPRPRPRPIFQPRP', 'shrunken log2 fold change', -0.269),
  ('RRIRPRPPRLPRPRPRPQTAPRP', 'shrunken log2 fold change', 0.111),
  ('RRIRYRPPRLPRPRPRPRGIPRP', 'shrunken log2 fold change', -0.0542),
  ('RRIRDRPPRLPRPRPRPCACPRP', 'shrunken log2 fold change', 0.112),
  ('RRIRDRPPRLPRPRPRPQYCPRP', 'shrunken log2 fold change', -0.207),
  ('RRIRPRPPRLPRPRPRPQCDPRP', 'shrunken log2 fold change', -0.254),
  ('RRIRDRPPRLPRPRPRPQRPPRP', 'shrunken log2 fold change', 0.0335),
  ('RRIRNRPPRLPRPRPRPAFLPRP', 'shrunken log2 fold change', -0.0726),
  ('RRIRSRPPRLPRPRPRPCLHPRP', 'shrunken log2 fold change', -0.0514),
  ('RRIRARPPRLPRPRPRPRMYPRP', 'shrunken log2 fold change', 0.0922),
  ('RRIRDRPPRLPRPRPRPTIMPRP', 'shrunken log2 fold change', -0.347),
  ('RRIRSRPPRLPRPRPRPALAPRP', 'shrunken log2 fold change', 0.419),
  ('RRIRSRPPRLPRPRPRPQSKPRP', 'shrunken log2 fold change', -0.0711),
  ('RRIRFRPPRLPRPRPRPSRYPRP', 'shrunken log2 fold change', -0.0764),
  ('RRIRQRPPRLPRPRPRPRAIPRP', 'shrunken log2 fold change', 0.109),
  ('RRIRWRPPRLPRPRPRPDFMPRP', 'shrunken log2 fold change', -0.015),
  ('RRIRARPPRLPRPRPRPQNEPRP', 'shrunken log2 fold change', -0.12),
  ('RRIRFRPPRLPRPRPRPFCEPRP', 'shrunken log2 fold change', -0.124),
  ('RRIRTRPPRLPRPRPRPCEDPRP', 'shrunken log2 fold change', -0.0385),
  ('RRIRKRPPRLPRPRPRPFNVPRP', 'shrunken log2 fold change', -0.172),
  ('RRIRTRPPRLPRPRPRPSMRPRP', 'shrunken log2 fold change', -0.107),
  ('RRIRIRPPRLPRPRPRPGFEPRP', 'shrunken log2 fold change', 3.71),
  ('RRIRERPPRLPRPRPRPYLHPRP', 'shrunken log2 fold change', -0.96),
  ('RRIRKRPPRLPRPRPRPHFDPRP', 'shrunken log2 fold change', 0.275),
  ('RRIRLRPPRLPRPRPRPHVYPRP', 'shrunken log2 fold change', -0.211),
  ('RRIRYRPPRLPRPRPRPNGNPRP', 'shrunken log2 fold change', -0.561),
  ('RRIRYRPPRLPRPRPRPKGEPRP', 'shrunken log2 fold change', -0.212),
  ('RRIRHRPPRLPRPRPRPDACPRP', 'shrunken log2 fold change', -0.0498),
  ('RRIRPRPPRLPRPRPRPTPEPRP', 'shrunken log2 fold change', 0.277);

* * *

System: Escherichia coli TOP10
Assay: shrunken log2 fold change of peptide-encoding DNA abundance (4.5 h post-induction vs induction); higher = less antimicrobial activity (less host growth inhibition)
Details: time post-induction: 4.5 h; library: site-saturation at positions 5, 18, 19, 20
The following ranges of shrunken log2 fold change define the classes used here: c1 (below -0.1), c2 (-0.1 to below 0.09), c3 (0.09 or more)

INSERT INTO measurements (record_sequence, label_class) VALUES
  ('RRIRMRPPRLPRPRPRPMQQPRP', 'c3'),
  ('RRIRGRPPRLPRPRPRPTYVPRP', 'c1'),
  ('RRIRLRPPRLPRPRPRPNMFPRP', 'c1'),
  ('RRIRVRPPRLPRPRPRPQHGPRP', 'c3'),
  ('RRIRNRPPRLPRPRPRPNGQPRP', 'c2'),
  ('RRIRDRPPRLPRPRPRPYCFPRP', 'c1'),
  ('RRIRNRPPRLPRPRPRPLDQPRP', 'c1'),
  ('RRIRCRPPRLPRPRPRPNWSPRP', 'c1'),
  ('RRIRWRPPRLPRPRPRPKYIPRP', 'c2'),
  ('RRIRHRPPRLPRPRPRPQSDPRP', 'c2'),
  ('RRIRNRPPRLPRPRPRPNTHPRP', 'c1'),
  ('RRIRMRPPRLPRPRPRPSYAPRP', 'c2'),
  ('RRIRNRPPRLPRPRPRPNYQPRP', 'c1'),
  ('RRIRPRPPRLPRPRPRPQTGPRP', 'c3'),
  ('RRIRMRPPRLPRPRPRPYTYPRP', 'c1'),
  ('RRIRNRPPRLPRPRPRPVAWPRP', 'c2'),
  ('RRIRRRPPRLPRPRPRPPRHPRP', 'c3'),
  ('RRIRVRPPRLPRPRPRPETAPRP', 'c3'),
  ('RRIRWRPPRLPRPRPRPWTMPRP', 'c1'),
  ('RRIRRRPPRLPRPRPRPMCQPRP', 'c3'),
  ('RRIRKRPPRLPRPRPRPQPCPRP', 'c3'),
  ('RRIRRRPPRLPRPRPRPSWSPRP', 'c1'),
  ('RRIRYRPPRLPRPRPRPHVKPRP', 'c2'),
  ('RRIRERPPRLPRPRPRPIIRPRP', 'c1'),
  ('RRIRERPPRLPRPRPRPMPLPRP', 'c2'),
  ('RRIRLRPPRLPRPRPRPPPTPRP', 'c3'),
  ('RRIRARPPRLPRPRPRPYAAPRP', 'c3'),
  ('RRIRVRPPRLPRPRPRPKEGPRP', 'c2'),
  ('RRIRHRPPRLPRPRPRPVQEPRP', 'c2'),
  ('RRIRMRPPRLPRPRPRPGLEPRP', 'c3');

* * *

Catalogue of shrunken log2 fold change values
Test system: Escherichia coli TOP10;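 also: peptides expressed intracellularly from a pBAD plasmid library in pooled LB shake-flask culture, induced with 0.3% L-arabinose, DNA abundance read by NGS, three biological replicates, DESeq2 with apeglm shrinkage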
Assay: shrunken log2 fold change of peptide-encoding DNA abundance (4.5 h post-induction vs induction); higher = less antimicrobial activity (less host growth inhibition)
Details: time post-induction: 4.5 h; library: site-saturation at positions 5, 18, 19, 20
readout name: shrunken log2 fold change

INSERT INTO results (record_sequence, measured) VALUES
  ('RRIRHRPPRLPRPRPRPLFAPRP', 0.107),
  ('RRIRNRPPRLPRPRPRPSENPRP', -0.296),
  ('RRIRYRPPRLPRPRPRPWSTPRP', -0.458),
  ('RRIRNRPPRLPRPRPRPWLRPRP', -0.0603),
  ('RRIRPRPPRLPRPRPRPYCHPRP', -0.241),
  ('RRIRFRPPRLPRPRPRPVLLPRP', -0.209),
  ('RRIRGRPPRLPRPRPRPTRPPRP', 1.16),
  ('RRIRLRPPRLPRPRPRPLAEPRP', 0.289),
  ('RRIRPRPPRLPRPRPRPMSAPRP', 0.0743),
  ('RRIRHRPPRLPRPRPRPKFHPRP', -0.429),
  ('RRIRNRPPRLPRPRPRPMPGPRP', 0.0352),
  ('RRIRFRPPRLPRPRPRPLKDPRP', -0.276),
  ('RRIRARPPRLPRPRPRPECPPRP', 0.683),
  ('RRIRTRPPRLPRPRPRPLDFPRP', -0.19),
  ('RRIRSRPPRLPRPRPRPRPDPRP', 0.218),
  ('RRIRVRPPRLPRPRPRPIWTPRP', -0.0382),
  ('RRIRMRPPRLPRPRPRPTNIPRP', -0.0556),
  ('RRIRGRPPRLPRPRPRPMSWPRP', 0.252),
  ('RRIRIRPPRLPRPRPRPEPQPRP', -0.0904),
  ('RRIRTRPPRLPRPRPRPTCEPRP', 0.125),
  ('RRIRWRPPRLPRPRPRPIIWPRP', -0.269),
  ('RRIRKRPPRLPRPRPRPCWYPRP', -0.139),
  ('RRIRERPPRLPRPRPRPIQSPRP', -0.642),
  ('RRIRGRPPRLPRPRPRPRLGPRP', 0.799),
  ('RRIRMRPPRLPRPRPRPPCHPRP', 0.186);
